Target: CRTH2 (KB8 cells) (Homo sapiens, UniProt Q9Y5Y4)
Construct: host or cells: KB8 cells (human CRTH2 expression cell)
Sequence (Q9Y5Y4 1-395): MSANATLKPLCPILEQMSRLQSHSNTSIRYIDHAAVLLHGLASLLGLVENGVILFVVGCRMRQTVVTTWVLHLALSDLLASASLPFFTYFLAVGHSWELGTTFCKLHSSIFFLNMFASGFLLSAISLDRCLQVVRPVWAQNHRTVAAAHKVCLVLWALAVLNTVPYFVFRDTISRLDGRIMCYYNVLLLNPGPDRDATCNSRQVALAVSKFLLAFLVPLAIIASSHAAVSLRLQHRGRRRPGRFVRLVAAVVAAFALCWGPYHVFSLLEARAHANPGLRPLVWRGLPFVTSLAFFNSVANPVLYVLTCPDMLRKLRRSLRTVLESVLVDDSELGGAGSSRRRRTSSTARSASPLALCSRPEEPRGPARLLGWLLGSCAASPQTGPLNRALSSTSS
Assay: CRTH2 antagonist test (PGD2-induced intracellular calcium ion concentration increase in KB8 cells)
Assay type: cell-based
Conditions: PGD2 final concentration 100 nM, Fluo-4-AM fluorescence, read-out: antagonist activity (IC50 value, inhibition of calcium ion concentration increase)
IC50 overview

Use the examples below as a reference point.
Query: Kindly state the measured IC50 obtained for O=C(O)Cc1cnc(C(=O)c2ccc(NC(=O)c3c[nH]cn3)cc2)c2ccccc12 with CRTH2 (KB8 cells) (Homo sapiens, UniProt Q9Y5Y4).
Result: ≥ 1000 nM

Query: Thanks! And O=C(O)Cc1cnc(C(=O)c2ccc(NC(=O)C3CCOCC3)cc2)c2ccccc12 ?
Result: ≥ 1000 nM

Query: Next: O=C(O)Cc1cnc(C(=O)c2ccc(C(=O)NCCc3ccc(Cl)cc3)cc2)c2ccccc12
Result: < 50 nM

Query: Now the compound CCCCCCc1ccc(CCNC(=O)c2ccc(Cc3ncc(CC(=O)O)c4ccccc34)cc2)cc1
Result: < 50 nM

Query: O=C(O)Cc1cnc(Cc2ccc(C(=O)NCCc3ccc(Cl)cc3Cl)cc2)c2ccccc12 ?
Result: < 50 nM

Query: How about O=C(O)Cc1cnc(C(=O)c2ccc(NC(=O)c3ccccc3)cc2)c2ccccc12 ?
Result: < 50 nM

Continuing:
Query: Field: IC50 (CRTH2 (KB8 cells) (Homo sapiens, UniProt Q9Y5Y4)). Entry: O=C(O)Cc1cnc(Cc2ccc(C(=O)NCCc3cn4ccccc4n3)cc2)c2ccccc12
Result: ≥ 1000 nM

Query: What about Cc1ccc(CCNC(=O)c2ccc(Cc3ncc(CC(=O)O)c4ccccc34)cc2)cc1F ?
Result: < 50 nM
